- System: NCI-H226
- PROTOCOL_DESCRIPTION: NCI tumour cell line growth inhibition, 48 h
Activity calls are given as the source filed them. No stated cut-off is given here; in the data, active = GI50 up to about 1.1 µM and inactive = higher.
Use one of these outcomes when replying: class 1 for active, class 0 for inactive

Record excerpt, results attached:
O=S(=O)(C1=CC(S(=O)(=O)c2ccccc2)CN(Cc2ccccc2)C1c1cccc2ccccc12)c1ccccc1 (stereo not given) | class 0
COc1ccc(OCC(=O)O)c2c1CCCC2=O | class 0
COc1cc2c(cc1OC)C(C(=O)c1cccc(OC)c1OC)C(=O)N(C)CC2 (stereo not given) | class 0
O=[N+]([O-])C=C(c1ccc(Cl)cc1)c1ccc(Cl)cc1 | class 0
O=C1c2cc3c(cc2CC1Cc1ccc2c(c1)CCC2)CCC3 (stereo not given) | class 0

Short answer needed: outcome of this test for S=C(N/N=C(/c1ccccc1)c1ccccn1)N(Cc1ccccn1)Cc1ccccn1 ?
class 1

Per the assay record, what outcome was assigned to COc1ccc2c(c1)N1CCc3cc(OC)c(OC)cc3C1C2 (stereo not given) ?
class 0

Could you kindly confirm the outcome this assay logged for CC1C(c2ccccc2)NC(c2ccccc2)CC1(N)C#N (stereo not given) ?
class 0

Just curious, what result did COc1c(C)c(OC)c2c(c1O)[C@@H]1[C@@H]3Cc4c(OC)c(C)c(OC)c(O)c4[C@H](CNC(=O)c4cnc5ccccc5n4)N3[C@@H](C#N)[C@H](C2)N1C get here?
class 1

What is the recorded call for this molecule in the test? CC12CCCC3(CC(=O)C(C)(C)C3C(=O)C1)C2 (stereo not given)
class 0

Lab log entry: O=C(c1ccccc1)C1OC12C(=O)Nc1ccccc12 (stereo not given) — outcome as called in the assay?
class 0

Which outcome was entered for the molecule CN(C)CCCNc1ccnc2cc([N+](=O)[O-])ccc12 in this test?
class 0

Which result was noted for this molecule in the test: Brc1cccc(Nc2ncnc3sc4c(c23)CCC2(C4)OCCO2)c1
class 0

====

// values below are reported GI50
- Tested on: 786-0
- PROTOCOL_DESCRIPTION: NCI tumour cell line growth inhibition, 48 h
The source made the active and inactive calls. Rule as the data show it: active = GI50 up to about 1.1 µM and inactive = higher.

Below, each entry is followed by its recorded GI50 result.
O=C1Nc2ccccc2C(=O)O/C(Cc2ccccc2)=N\c2ccccc21 | > 100 µM (inactive)
C/C(=C\CNc1ncnc2c1ncn2C1CCCCO1)COP(=O)(O)O (stereo not given) | > 100 µM (inactive)
CCOC(=O)C(NC(=O)c1ccccc1)(Nc1ccc(S(=O)(=O)Nc2ncccn2)cc1)C(F)(F)F (stereo not given) | > 100 µM (inactive)
Oc1cccc2c(Br)ccnc12 | 17.1 µM (inactive)

Identify GI50 associated with the compound CC1(C)OC2C(O1)[C@H]1OC(C(Cl)(Cl)Cl)=N[C@H]1C(I)[C@H]2N1C(=O)c2ccccc2C1=O (stereo not given in full)
> 100 µM (inactive)

Return the recorded GI50 value; entry: CCN(CC)CCNc1ccc2nnn3c4ccccc4c(=O)c1c23
4.3 µM (inactive)

Give the value of GI50 reported for the following: CC(=O)Nc1nc(NC(C)=O)c2nc(CO)[nH]c2n1
> 100 µM (inactive)

Report GI50 for NS(=O)(=O)c1ccc(NC(=O)c2ccc3nc4ccccc4c(Nc4ccc(S(N)(=O)=O)cc4)c3c2)cc1
> 100 µM (inactive)

In one line, give reported GI50 of the entry CCCCSC1=N/C(=C\c2ccco2)C(Cl)=N1 .
> 100 µM (inactive)

Provide only the value of recorded GI50 for COc1cc2c(cc1OC)C(C(=O)c1cccc(OC)c1OC)C(=O)N(C)CC2 (stereo not given)
> 100 µM (inactive)
